Where do these numbers come from? They come from patent US20070128217A1.

Test system: antibodies in sera from SARS patients (sera 1a, 1b, 2, 6, 37, 62, London, SARS-yellow, SARS-green)
Type: binding, human
Design: unit not given here
Would you kindly list Binding of serum 37 to linear peptides of protein X1 of SARS-CoV Urbani for each of these sequences?
Just the number, please.

### Prompt Which Binding of serum 37 to linear peptides of protein X1 of SARS-CoV Urbani is reported for this sequence? `LAVFQSATKIIALNK`
### Response 0.6

### Prompt Which Binding of serum 37 to linear peptides of protein X1 of SARS-CoV Urbani is reported for this sequence? `WLVIGVAFLAVFQSA`
### Response 0.7

### Prompt Which Binding of serum 37 to linear peptides of protein X1 of SARS-CoV Urbani is reported for this sequence? `CNLLLLFVTIYSHLL`
### Response 0.6

---

System: antibodies in sera from SARS patients (sera 1a, 1b, 2, 6, 37, 62, London, SARS-yellow, SARS-green)
Format: binding, human
readoutKind: Binding of serum 1b to linear peptides of protein M of SARS-CoV Urbani
Just the number, please.

### Prompt Which Binding of serum 1b to linear peptides of protein M of SARS-CoV Urbani is reported for this sequence? `TRSMWSFNPETNILL`
### Response 0.7

### Prompt Which Binding of serum 1b to linear peptides of protein M of SARS-CoV Urbani is reported for this sequence? `SYFVASFRLFARTRS`
### Response 0.6

### Prompt Which Binding of serum 1b to linear peptides of protein M of SARS-CoV Urbani is reported for this sequence? `GTIVTRPLMESELVI`
### Response 0.7

### Prompt Which Binding of serum 1b to linear peptides of protein M of SARS-CoV Urbani is reported for this sequence? `WSFNPETNILLNVPL`
### Response 1.7

---

Would you kindly list Binding of Control serum LUMC to linear peptides for each of these sequences?
Tested on: control sera (pooled serum of ten healthy LUMC hospital workers; commercial negative donor pooled serum from the Dutch bloodbank)
Format: binding, human
Set-up: unit not given here

### Prompt Which Binding of Control serum LUMC to linear peptides is reported for this sequence? `VVTEGDGISTPKLKE`
### Response 0.2

### Prompt Which Binding of Control serum LUMC to linear peptides is reported for this sequence? `KDPPNVQIHTIDGSS`
### Response 0.3

### Prompt Which Binding of Control serum LUMC to linear peptides is reported for this sequence? `HFAFACADGTRHTYQ`
### Response 0.7

### Prompt Which Binding of Control serum LUMC to linear peptides is reported for this sequence? `GQQQQGQTVTKKSAA`
### Response 0.9

### Prompt Which Binding of Control serum LUMC to linear peptides is reported for this sequence? `ICNLLLLFVTIYSHL`
### Response 0.5

### Prompt Which Binding of Control serum LUMC to linear peptides is reported for this sequence? `SSRSSSRSRGNSRNS`
### Response 0.7

### Prompt Which Binding of Control serum LUMC to linear peptides is reported for this sequence? `NATFFIFNKLVKDPP`
### Response 0.4

### Prompt Which Binding of Control serum LUMC to linear peptides is reported for this sequence? `VHGYFTEVYYQLEST`
### Response 0.5

### Prompt Which Binding of Control serum LUMC to linear peptides is reported for this sequence? `EASLPYGANKEGIVW`
### Response 0.6

### Prompt Which Binding of Control serum LUMC to linear peptides is reported for this sequence? `QSTALQELLIQQWIQ`
### Response 0.4

### Prompt Which Binding of Control serum LUMC to linear peptides is reported for this sequence? `TDTIVVTEGDGISTP`
### Response 0.5

### Prompt Which Binding of Control serum LUMC to linear peptides is reported for this sequence? `RRRLLACLCKHKKVS`
### Response 0.6

### Prompt Which Binding of Control serum LUMC to linear peptides is reported for this sequence? `LTCTSTHFAFACADG`
### Response 0.8

### Prompt Which Binding of Control serum LUMC to linear peptides is reported for this sequence? `AFACADGTRHTYQLR`
### Response 0.5

### Prompt Which Binding of Control serum LUMC to linear peptides is reported for this sequence? `CNIVNVSLVKPTVYV`
### Response 0.8

### Prompt Which Binding of Control serum LUMC to linear peptides is reported for this sequence? `LESTQITTDTGIENA`
### Response 0.4

### Prompt Which Binding of Control serum LUMC to linear peptides is reported for this sequence? `MRFFTLGSITAQPVK`
### Response 0.7

### Prompt Which Binding of Control serum LUMC to linear peptides is reported for this sequence? `CWLCWKCKSKNPLLY`
### Response 0.7
